Quick note: these are IC50 numbers for system: Acetylcholinesterase (Electrophorus electricus, UniProt O42275)
Sequence (O42275 whole entry): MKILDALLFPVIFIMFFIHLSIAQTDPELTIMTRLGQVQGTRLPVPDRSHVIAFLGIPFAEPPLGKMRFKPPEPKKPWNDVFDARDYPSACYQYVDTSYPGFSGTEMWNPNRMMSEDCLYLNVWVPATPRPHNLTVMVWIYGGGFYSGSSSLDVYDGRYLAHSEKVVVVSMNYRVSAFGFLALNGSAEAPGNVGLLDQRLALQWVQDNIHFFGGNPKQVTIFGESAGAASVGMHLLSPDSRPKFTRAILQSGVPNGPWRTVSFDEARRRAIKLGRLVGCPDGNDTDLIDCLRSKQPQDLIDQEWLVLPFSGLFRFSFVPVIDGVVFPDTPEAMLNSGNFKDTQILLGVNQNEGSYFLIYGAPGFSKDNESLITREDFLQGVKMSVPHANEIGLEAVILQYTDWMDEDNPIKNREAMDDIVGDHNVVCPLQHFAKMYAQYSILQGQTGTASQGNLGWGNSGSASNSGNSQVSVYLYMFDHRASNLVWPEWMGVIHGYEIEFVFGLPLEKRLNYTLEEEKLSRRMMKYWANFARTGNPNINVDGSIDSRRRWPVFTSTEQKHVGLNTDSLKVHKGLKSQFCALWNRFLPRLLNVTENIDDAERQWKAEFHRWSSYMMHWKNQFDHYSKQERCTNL
Note: unit µM is implicit; provide only the numeric part.

C=Cc1cccc2c1N(CCC)Cc1cc3c(cc1-2)OCO3 | 10.6
CCc1cccc2c1N(CC)Cc1cc3c(cc1-2)OCO3 | 8.82

Alright, here's another compound for you.
## Task Reported IC50 for `C=Cc1cccc2c1N(CC)Cc1cc3c(cc1-2)OCO3` : what is it?
## Result 8.35

---

pIC50: −log10 of the molar value.
Quick note: these are pIC50 numbers for system: Acetylcholinesterase (Electrophorus electricus)

Consider the following illustrative entries.
C=Cc1cccc2c1N(CCCCC)Cc1cc3c(cc1-2)OCO3 | > 5.30
CCCCCCN1Cc2cc3c(cc2-c2cccc(CC)c21)OCO3 | > 5.30

Alright, here's another compound for you.
## Task Reported pIC50 for `C=Cc1cccc2c1N(CCCCCC)Cc1cc3c(cc1-2)OCO3` : what is it?
## Result > 5.30

The origin of these recorded values is ChEMBL document CHEMBL1144549.
